Procedure Summary: qHTS profiling of the MIPE4 collection as inhibitors of Plasmodium falciparum (HB3) proliferation (AID 743347)
Test Conditions: P. falciparum HB3 in erythrocytes, SYBR Green DNA, 72 h; at 28.5 µM (top of the series) unless noted
# True = growth, % of control below 20% (exclusive); False = growth, % of control at/above 20%

Nc1ccn([C@@H]2O[C@H](CO)[C@H](O)C2(F)F)c(=O)n1 False

## Task Item `COc1ccc(-n2nc(C(N)=O)c3c2C(=O)N(c2ccc(N4CCCCC4=O)cc2)CC3)cc1` : growth, % of control beneath 20%, strictly?
## Result False

## Task Item `CNC(=O)c1ccc(N2C(=S)N(c3cnc(C#N)c(C(F)(F)F)c3)C(=O)C23CCC3)cc1F` : growth, % of control beneath 20%, strictly?
## Result False

## Task Item `COC(=O)Nc1ccc(-c2nc(N3CCOCC3)c3cnn(C4CCN(Cc5cccnc5)CC4)c3n2)cc1` : growth, % of control beneath 20%, strictly?
## Result True

## Task Item `Cc1ccc(CN2CCNCC2)cc1NC(=O)CNc1ccc(F)c(F)c1` : growth, % of control beneath 20%, strictly?
## Result False

## Task Item `CCNC(=O)Nc1ccc2ncc(Nc3ccc(C)cc3)nc2n1` : growth, % of control beneath 20%, strictly?
## Result True

## Task Item `COc1cc2c(NC3CCN(C(C)C)CC3)nc(C3CCCCC3)nc2cc1OCCCN1CCCC1` : growth, % of control beneath 20%, strictly?
## Result True

## Task Item `Cc1cn2cc(C(=O)N(C)CCO)cc(N[C@@H]3CCOc4cccc(C)c43)c2n1` : growth, % of control beneath 20%, strictly?
## Result False

====

Procedure Summary: Quantitative High-Throughput drug screen in 47 multiple myeloma cell lines against the NCATS MIPE library collection: ARD_JJKsccE7 cell viability assay (AID 1918929; also: potency is read from the fitted curve at half-maximal effect)
Test Conditions: ARD myeloma cell line viability, CellTiter-Glo, 48 h; series mostly up to 45.8 µM
Inconclusive results are not listed. Active and inactive are the calls of the source. The call rests on the fitted dose curve; in most records, active means well fitted cell-killing curve with a large enough effect; inconclusive means small, poorly fitted or top-dose-only effect, or effect the other way; inactive means no such curve, though single readings can be large or run the other way.
Thanks in advance; please answer with one of these: active, inactive

Molecule	Assigned Label
COc1cc(C(=O)N2CCC(N3CCN(C)CC3)CC2)ccc1Nc1ncc2c(n1)N(C)c1ccccc1C(=O)N2C	active

# evaluate next
## Task Outcome logged for `COc1ccc(OC)c(-c2nnc3ccc(-c4ccc(OC)c(O[C@@H]5CCOC5)c4)nn23)c1` in this assay:
## Result active

====

Procedure Summary: Quantitative High-Throughput drug screen in 47 multiple myeloma cell lines against the NCATS MIPE library collection: KMS26_JCRB cell viability assay (AID 1918975); also: nearly all actives have a fitted effect of over 45% in size; also: potency is read from the fitted curve at half-maximal effect
Test Conditions: KMS26 myeloma cells viability, CellTiter-Glo ATP, 48 h; series mostly up to 45.8 µM
Records with an inconclusive call do not appear. Activity calls are given as the source filed them. Calls come from the whole dose curve; as a rule, active = well fitted cell-killing curve with a large enough effect; inconclusive = small, poorly fitted or top-dose-only effect, or effect the other way; inactive = no such curve, though single readings can be large or run the other way.
Metric: Potency

Recorded Potency, per entry:
Compound	Potency
Cc1ccc2nc(NC(=O)CSc3nc4c(c(=O)n3-c3ccccc3)SCC4)sc2c1	23.5 µM (active)
Cn1cc(-c2ccncc2)c(-c2ccc(OCc3ccc4ccccc4n3)cc2)n1	7.43 µM (active)
Cc1cc(Nc2cc(N3CCN(C)CC3)nc(C=Cc3ccccc3)n2)n[nH]1	21.5 µM (active)
CNC(=O)c1c(F)cccc1Nc1nc(Nc2cc3c(cc2OC)CCN3C(=O)CN(C)C)nc2[nH]ccc12	0.264 µM (active)

## Task Looking for the measured Potency of `CN1CCN(c2cc(C(=O)Nc3ccc4c(c3)-c3c(c(C(N)=O)nn3-c3ccc(F)cc3)CC4)c(Cl)cn2)CC1` , can you help?
## Result 10.5 µM (active)

## Task Looking for the measured Potency of `COC(=O)c1ccc2c(C(=Nc3ccc(N(C)C(=O)CN4CCN(C)CC4)cc3)c3ccccc3)c(O)[nH]c2c1` , can you help?
## Result 2.64 µM (active)

## Task Looking for the measured Potency of COC(=O)C1=C(C)NC(C)=C(C(=O)OCCN2CCN(C(c3ccccc3)c3ccccc3)CC2)C1c1cccc([N+](=O)[O-])c1 (stereo not drawn) , can you help?
## Result inactive

## Task Looking for the measured Potency of `Nc1ccccc1NC(=O)c1ccc(CNc2nccc(-c3cccnc3)n2)cc1` , can you help?
## Result 1.32 µM (active)

## Task Looking for the measured Potency of `Cc1nc(N)ncc1-c1nc(N2CCOCC2)c2sc(C(C)(C)O)cc2n1` , can you help?
## Result 0.526 µM (active)

## Task Looking for the measured Potency of `O=C(Cc1ccc(-c2ccc(OCCN3CCOCC3)cc2)cn1)NCc1ccccc1` , can you help?
## Result 0.0833 µM (active)

## Task Looking for the measured Potency of `NC(=O)Nc1cc(-c2cccc(F)c2)sc1C(=O)N[C@H]1CCCNC1` , can you help?
## Result 11.8 µM (active)
